Listed below: melting point values for each entry.
MEASURE: melting point

COMPOUND	MEASURE	RESULT
O=C(c1ccc2c(c1)OCCO2)c1cc2ccccc2o1	melting point	68 to 70 °C
CC(C)(C)NS(=O)(=O)c1cccs1	melting point	80 to 82 °C
COc1cc2cnn(CCO)c(=O)c2cc1OC	melting point	174 to 176 °C
O[C@@H]1C=CO[C@H](COCc2ccccc2)[C@H]1OCc1ccccc1	melting point	53 °C
CCCCC(=O)N(Cc1ccc(OC(F)(F)F)cc1)c1cc(Cl)cc(-c2nnn[nH]2)c1	melting point	177 to 180 °C
CCCC(C)C(=O)N1CC(NC(=O)Nc2cccc(C(=O)O)c2)C(=O)N(CC(=O)c2ccccc2C)c2cc(C)ccc21 (stereo not given)	melting point	227 to 229 °C
CCOc1cc(OCCCc2cn(-c3cc(C(F)(F)F)ccn3)nc2OCC)ccc1CCC(=O)OC	melting point	79 to 81 °C
CC1(C)OC[C@H]([C@@H](CS(=O)(=O)c2ccc(Oc3ccc(C(F)(F)F)cc3)cc2)N(O)C=O)O1	melting point	141 to 143 °C
COC(=O)CC1CC(c2ccc(C#N)nc2)=NO1 (stereo not given)	melting point	115 to 116 °C
CCCS(=O)(=O)c1ccc(NS(=O)(=O)c2cccs2)c2[nH]c(C3=NCCS3)cc12	melting point	101 to 102 °C

* * *

MEASURE: melting point

COMPOUND	MEASURE	RESULT
O=C(c1cccnc1)C(O)c1ccccc1Br (stereo not given)	melting point	105 to 108 °C
Cc1cc(C#N)cc(C(=O)Nc2cccc(Cl)n2)n1	melting point	222 °C
COC(=O)C1=C(C)Nc2ncnc(OC(C)C)c2C1c1cccc([N+](=O)[O-])c1 (stereo not given)	melting point	218 to 219 °C
COC(=O)NNC(=S)Cc1cccs1	melting point	74 to 75 °C
CCCC(=O)c1c(C)cc(C)cc1O	melting point	48 to 52 °C
CS(=O)(=O)Nc1cccc(Nc2nc(NCc3ncc[nH]3)c3nc[nH]c3n2)c1	melting point	216 to 220 °C
CN(C)CCc1c(CC(C#N)(c2ccccc2)c2ccccc2)c2ccccc2n1C	melting point	133 to 136 °C
CCCOCC1(c2onc(-c3ccc(O)cc3)c2-c2ccccc2)CC1	melting point	111 to 112 °C
COC(=O)C(=O)c1ccc(OCCOc2ccc3ccccc3c2)cc1Cl	melting point	123 to 125 °C
Oc1c(C(=S)NCc2ccc(Cl)cc2)cnc2ccc(CN3CCOCC3)cc12	melting point	215 to 216 °C
C[C@@H](CO)COc1ccc(-c2ccc(Cl)nn2)cc1	melting point	134 to 138 °C
Cn1c(CCSN2CCC3(CC2)CC(=O)c2cc(NS(C)(=O)=O)ccc2O3)cc(=O)n(C)c1=O	melting point	198 to 201 °C
CC(C)Cn1c(C(F)(F)F)nc2cc(F)c(-n3c(=O)cc(C(F)(F)F)n(C)c3=O)cc21	melting point	169 to 170 °C
COc1nc(SCc2ccccc2)ncc1Br	melting point	48 to 49 °C
CCOC(=O)c1c(CCl)nc2cc(OC)c(OC)cc2c1-c1ccc(Cl)cc1	melting point	153 to 154 °C
O=Cc1ccc2c(c1F)OC(c1ccccc1)(c1ccccc1)O2	melting point	92 to 94 °C
N#Cc1ccc(N(Cc2ccc(OCc3ccccc3)cc2)n2cncn2)cc1-c1ccccc1	melting point	112 to 113 °C
CC(C)(COc1ccc(O)c(C(N)=O)c1)NCC(O)c1ccccc1 (stereo not given)	melting point	121 to 123 °C
COC(=O)c1ccc(OC)c(NC(=NCl)c2ccc(Cl)cc2Cl)c1	melting point	120 °C
O=C(Nc1ccc2[nH]c(=O)sc2c1)C(=O)N1CCC(Cc2ccc(F)cc2)CC1	melting point	224 to 226 °C

Attribution: a melting point compilation (Tetko et al.; mined from patent text by program, amines drawn as free bases though some values may be those of a salt)
